Assignment: determine reported Average Relative IC50 for the given binders.
# Target Under Test: T1, soluble cynomolgus TNFR2 (cynomolgus, UniProt A0A2K5VET2 132-366)
# T1 sequence: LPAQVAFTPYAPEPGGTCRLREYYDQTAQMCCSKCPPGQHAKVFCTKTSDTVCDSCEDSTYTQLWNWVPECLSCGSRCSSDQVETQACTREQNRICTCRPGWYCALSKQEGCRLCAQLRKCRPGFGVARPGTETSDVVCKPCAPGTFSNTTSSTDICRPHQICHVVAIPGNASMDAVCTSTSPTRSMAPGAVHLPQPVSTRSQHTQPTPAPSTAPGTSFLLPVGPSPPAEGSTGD
# Protocol: competition ELISA, plate-bound soluble cynomolgus TNFR2, biotinylated TNFα as competitor
# Procedure: Soluble human TNFR2 (Sino Biological, 10417-H08H) or cynomolgus TNFR2 (Sino Biological, 90102-C08H) was coated on Nunc-Immuno™ plates at 0.1 μg/ml, 0.5 ug/ml, 1 μg/ml, and 5 μg/ml. […] Plates were developed using TMB and stopped with 3 M HCl. IC₅₀ values are reported in nM.

Example binders with recorded Average Relative IC50:
Binder	Average Relative IC50
chimeric SBT-002 (antibody, V domains shown, also called chSBT-002) VH: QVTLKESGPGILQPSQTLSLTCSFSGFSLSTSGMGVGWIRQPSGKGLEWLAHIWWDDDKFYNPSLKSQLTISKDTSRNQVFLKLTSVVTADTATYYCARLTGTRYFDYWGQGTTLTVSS VL: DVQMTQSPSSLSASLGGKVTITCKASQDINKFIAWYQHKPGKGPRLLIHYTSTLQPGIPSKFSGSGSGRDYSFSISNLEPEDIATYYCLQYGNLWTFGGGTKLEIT	3.38
chimeric SBT-004b (antibody, human IgG1, V domains shown, Same heavy chain as chSBT-004 (human IgG1 Fc domain); also called chSBT-004b) VH: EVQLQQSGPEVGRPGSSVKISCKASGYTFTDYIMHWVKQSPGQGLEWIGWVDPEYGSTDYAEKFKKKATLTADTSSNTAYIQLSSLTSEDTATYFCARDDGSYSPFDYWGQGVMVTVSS VL: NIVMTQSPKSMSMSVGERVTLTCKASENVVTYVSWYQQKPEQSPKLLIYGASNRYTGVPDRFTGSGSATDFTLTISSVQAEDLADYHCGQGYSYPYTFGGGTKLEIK	1.56

Fill in Average Relative IC50 for each of the 2 binders listed.
1. SBT-002 (antibody, V domains shown, Parental mouse antibody; also called mouse SBT-002) VH: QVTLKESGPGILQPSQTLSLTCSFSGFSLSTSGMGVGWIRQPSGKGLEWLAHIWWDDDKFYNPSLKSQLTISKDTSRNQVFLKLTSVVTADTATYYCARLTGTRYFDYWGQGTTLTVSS VL: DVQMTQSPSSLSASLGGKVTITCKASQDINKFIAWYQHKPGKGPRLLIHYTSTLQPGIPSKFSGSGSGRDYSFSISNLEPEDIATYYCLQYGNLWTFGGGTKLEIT
2. chimeric SBT-004 (antibody, V domains shown, VH fused to a human IgG1 Fc domain; also called chSBT-004) VH: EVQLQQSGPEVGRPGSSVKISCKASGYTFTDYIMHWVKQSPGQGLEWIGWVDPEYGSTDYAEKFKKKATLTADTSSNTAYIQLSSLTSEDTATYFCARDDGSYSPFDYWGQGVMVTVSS VL: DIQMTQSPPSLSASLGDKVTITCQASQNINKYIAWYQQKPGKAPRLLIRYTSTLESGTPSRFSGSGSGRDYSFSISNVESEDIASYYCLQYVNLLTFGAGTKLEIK

[out]
1.98
3.64
